Test system: HCT116 cells
Assay: WST-1 proliferation assay on HCT116 cells treated with peptide
Type: cell-based
Conditions: High sera, 10 uM, head 4 SD
Readout Type: proliferation hit score, High sera (SD)
// return numeric value only (unit: SD, not printed)

Example entries and their recorded answers appear below.
q: Entry SEQ ID NO: 33681: peptide hit of Table E; sequence only in Sequence Listing (IMAIFFFFCIIVSSLPTAELGTENACSTCLLNE; listed as Homo sapiens) : reported proliferation hit score, High sera = ?
a: −8.606

q: Now try SEQ ID NO: 38081: peptide hit of Table E; sequence only in Sequence Listing (MRRAWRPRLLGAALVAH; listed as Homo sapiens) .
a: −0.5065

q: Now try SEQ ID NO: 29230: peptide hit of Table E; sequence only in Sequence Listing (REQVPGMGGKSWLFFYSLVFCALLPLPRREDPFKLF; listed as Homo sapiens) .
a: 0.2713

q: Now try SEQ ID NO: 33599: ORF peptide; sequence only in Sequence Listing (MCLGLLFCFMPLSLVVSSEEARFKVAADLCGFATGNSW; listed as Homo sapiens) .
a: −4.843

Please find the next substance below.
q: Entry SEQ ID NO: 37997: synthetically produced target protein, secreted tumor suppressor; sequence only in Sequence Listing (MSRLSLSWESLTNAIWPLDLQDIKGYLPNPLPQRVNLRKQILSISKEPN; listed as Homo sapiens) : reported proliferation hit score, High sera = ?
a: −11.51
